Reference source for all entries: the PolyMetriX glass transition set

MOLECULE | U | glass transition temperature
*CCC1C(=O)N(CCCCNC(=O)C(F)(F)C(F)(F)C(F)(F)C(F)(F)C(F)(F)C(F)(F)C(F)(F)F)C(=O)C1* (repeat unit) | °C | 100.00
*c1cccc(C(=O)Nc2ccc(Oc3ccc(S(=O)(=O)c4ccc(Oc5ccc(NC(=O)c6cccc(N7C(=O)c8ccc(-c9ccc%10c(c9)C(=O)N(*)C%10=O)cc8C7=O)c6)cc5)cc4)cc3)cc2)c1 (repeat unit) | °C | 258.00
*Oc1ccc(C(C)(C)c2ccc(Oc3cccc(*)n3)cc2)cc1 (repeat unit) | °C | 107.00
*c1ccc(-c2ccc(-c3cc(-c4ccccc4)c4cc(C5(c6ccc7nc(*)cc(-c8ccccc8)c7c6)c6ccccc6-c6ccccc65)ccc4n3)cc2)cc1 (repeat unit) | °C | 380.00
